- Test system: AncSZ;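 also: 11-residue human phosphosite peptides and single-mutation variants displayed on the E. coli surface, counted by deep sequencing, each peptide's frequency after selection divided by its frequency in the unselected input library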;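 also: frequency after pTyr selection over input frequency; kinase dosed for 20-30% of maximal phosphorylation in three min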
- experimental.protocol: phosphorylation enrichment, bacterial display (enrichment ratio); higher = better substrate or ligand; peptides without Tyr show the background
Class 1 (yes): phosphorylation enrichment at least 0.9. Class 0 (no): phosphorylation enrichment below 0.9.

# sequence.string, group
records = [
    ("YFCRWYRNQKS [EREG_Y144_R147Q]", "0 (no)"),
    ("PVEAAYQKVVA [HBB_Y131_Q128E]", "0 (no)"),
    ("ADSLRYIYPKL [EIF2B3_Y92]", "0 (no)"),
    ("QLAPQYTFAQG [FLNA_Y1761_YF]", "0 (no)"),
    ("TYEPNYGTVKQ [RAPGEF6_Y1447]", "0 (no)"),
    ("KDHPDYKYPPR [SOX10_Y171_Q174P]", "0 (no)"),
    ("GKVADYIPQLP [GLS_Y249_A254P]", "0 (no)"),
    ("INSLKYAFNVS [EIF2B5_Y583_I587V_YF]", "0 (no)"),
    ("AIFWRYSKFFD [SH3PXD2B_Y45_R43W_YF]", "0 (no)"),
    ("GIKAAYEAELG [LMNA_Y81]", "0 (no)"),
    ("EQKKFSNAMKK [SCN5A_Y1495_Y1495S_YF]", "0 (no)"),
    ("TVSRPYSFIEF [SEC22B_Y110]", "0 (no)"),
    ("RAILLYEFVGK [NATD1_Y45_V42I_YF]", "1 (yes)"),
    ("LNPFIYSLRNW [OR1A2_Y288]", "1 (yes)"),
    ("KEEEDYKEENN [BMS1_Y651]", "1 (yes)"),
    ("EYDRLYEEYTR [PIK3R1_Y467]", "1 (yes)"),
    ("EQYELYCEMGS [CBL_Y371]", "1 (yes)"),
    ("SWKRRYFLLWA [APBB1IP_Y331_R335W]", "0 (no)"),
    ("KKYFSYAWPFY [BRDT_Y291_H288Y]", "1 (yes)"),
    ("YQGGTYSKAST [FGG_Y380]", "0 (no)"),
    ("NIWDSYTTNKV [GNB1_Y85_I80N]", "1 (yes)"),
    ("PSQRRYLFFFS [PTEN_Y174_V175L_YF]", "1 (yes)"),
    ("GSESDYIIMPN [SCARB1_Y133_V135I]", "1 (yes)"),
    ("TNIKRYHIAKV [HARS1_Y150]", "0 (no)"),
    ("FSKQIYKGMVA [PCDH15_Y931_R929Q]", "0 (no)"),
    ("ANNEYYFRVCA", "1 (yes)"),
    ("ADYYDYGHGLS [KHDRBS3_Y304]", "1 (yes)"),
]
